Give kon for every item shown.
MEASUREMENT_TARGET: T1, SARS-CoV2 spike RBD variant strain (SPD-C52Hp, Acro Biosystems, K417N, E484K, N501Y) (SARS-CoV-2, UniProt P0DTC2 319-537)
T1 construct: domain: RBD
TEST_PROTOCOL: BLI (Octet), biotinylated RBD on SA sensor, VHH as analyte, 1:1 fit
One number for each entry, in M⁻¹ s⁻¹.

Below are worked cases with known answers.
BINDER	REPORTED
Bacillus subtilis-derived VHH-COVE7 (VHH) VHH: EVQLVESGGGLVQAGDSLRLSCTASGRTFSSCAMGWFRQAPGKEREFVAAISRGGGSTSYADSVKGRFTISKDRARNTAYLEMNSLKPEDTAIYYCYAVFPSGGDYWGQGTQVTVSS	42400
Bacillus subtilis-derived VHH-COVE2 (VHH) VHH: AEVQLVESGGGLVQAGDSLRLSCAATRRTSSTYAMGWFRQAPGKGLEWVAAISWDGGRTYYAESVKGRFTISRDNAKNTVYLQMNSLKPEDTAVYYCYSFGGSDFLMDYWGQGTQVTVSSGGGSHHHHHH	58400
Bacillus subtilis-derived VHH-COVE3 (VHH) VHH: AEVQLVESGGGFVQAGGSLRLSCRVSAPTFMTYTMAWFRQAPGNEREFVAALSKNFVTTSYADSVKGRFTISRDNAKNTVYLQMNSLKPEDTAVYYCNVAWSDYEYLEVWGQGTLVTVSSGGGSHHHHHH	40000
Bacillus subtilis-derived VHH-COVE9 (VHH) VHH: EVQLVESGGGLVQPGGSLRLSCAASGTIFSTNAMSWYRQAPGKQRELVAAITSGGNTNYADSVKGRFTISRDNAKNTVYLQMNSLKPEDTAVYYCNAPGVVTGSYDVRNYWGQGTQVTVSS	146000
Bacillus subtilis-derived VHH-COVE5 (VHH) VHH: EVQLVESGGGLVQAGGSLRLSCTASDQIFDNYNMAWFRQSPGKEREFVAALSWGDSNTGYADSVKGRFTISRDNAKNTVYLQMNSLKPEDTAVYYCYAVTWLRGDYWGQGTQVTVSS	204000

Here's the next entry for you.
# kon lookup, item Bacillus subtilis-derived VHH-COVE8 (VHH) VHH: EVQLVESGGGLVQPGGSLTLSCAASGQTFSSYNMAWFRQSPGKEREFVATISWGGGSTGYADSVKGRFTISRDHAKNTVYLQMKDLKPEDTGAYYCYLVGLFGIQASDYWGQGTQVTVSS
79900
